conditions: pampa, pH 7.4, 100 µM
Description: Effective permeability of the compound in PBS buffer at pH 7.4 at 100 uM after 3 to 6 hrs by PAMPA
readout.kind: permeability

> print(dat)
                                   molecule  measurement
1  COc1ccc2nc3c(c(NCCCCNC(=O)[C@@H](N)Cc4c[nH]c5ccccc45)c2c1)CCCC3.Cl.Cl  Impermeable
2  COc1ccc2nc3c(c(NCCCCCNC(=O)[C@@H](N)Cc4c[nH]c5ccccc45)c2c1)CCCC3.Cl.Cl  Impermeable
3  Cl.Cl.NC(Cc1c[nH]c2ccccc12)C(=O)NCCCCCCNc1c2c(nc3cc(Cl)ccc13)CCCC2 (racemic)    Permeable
4               Nc1c2c(nc3cc(Cl)ccc13)CCCC2    Permeable
5  Cl.Cl.N[C@H](Cc1c[nH]c2ccccc12)C(=O)NCCCCCCNc1c2c(nc3cc(Cl)ccc13)CCCC2    Permeable
6  Cl.Cl.N[C@@H](Cc1c[nH]c2ccccc12)C(=O)NCCCCCCNc1c2c(nc3ccccc13)CCCC2  Impermeable
7  Cl.Cl.N[C@@H](Cc1c[nH]c2ccccc12)C(=O)NCCCCNc1c2c(nc3ccccc13)CCCC2    Permeable
8  COc1ccc2nc3c(c(NCCNC(=O)[C@@H](N)Cc4c[nH]c5ccccc45)c2c1)CCCC3.Cl.Cl  Impermeable
9  Cl.Cl.N[C@@H](Cc1c[nH]c2ccccc12)C(=O)NCCCCCCNc1c2c(nc3cc(Cl)ccc13)CCCC2    Permeable

====

target: Nitric oxide synthase 1 (Rattus norvegicus, UniProt P29476)
Sequence (P29476 whole entry, looked up): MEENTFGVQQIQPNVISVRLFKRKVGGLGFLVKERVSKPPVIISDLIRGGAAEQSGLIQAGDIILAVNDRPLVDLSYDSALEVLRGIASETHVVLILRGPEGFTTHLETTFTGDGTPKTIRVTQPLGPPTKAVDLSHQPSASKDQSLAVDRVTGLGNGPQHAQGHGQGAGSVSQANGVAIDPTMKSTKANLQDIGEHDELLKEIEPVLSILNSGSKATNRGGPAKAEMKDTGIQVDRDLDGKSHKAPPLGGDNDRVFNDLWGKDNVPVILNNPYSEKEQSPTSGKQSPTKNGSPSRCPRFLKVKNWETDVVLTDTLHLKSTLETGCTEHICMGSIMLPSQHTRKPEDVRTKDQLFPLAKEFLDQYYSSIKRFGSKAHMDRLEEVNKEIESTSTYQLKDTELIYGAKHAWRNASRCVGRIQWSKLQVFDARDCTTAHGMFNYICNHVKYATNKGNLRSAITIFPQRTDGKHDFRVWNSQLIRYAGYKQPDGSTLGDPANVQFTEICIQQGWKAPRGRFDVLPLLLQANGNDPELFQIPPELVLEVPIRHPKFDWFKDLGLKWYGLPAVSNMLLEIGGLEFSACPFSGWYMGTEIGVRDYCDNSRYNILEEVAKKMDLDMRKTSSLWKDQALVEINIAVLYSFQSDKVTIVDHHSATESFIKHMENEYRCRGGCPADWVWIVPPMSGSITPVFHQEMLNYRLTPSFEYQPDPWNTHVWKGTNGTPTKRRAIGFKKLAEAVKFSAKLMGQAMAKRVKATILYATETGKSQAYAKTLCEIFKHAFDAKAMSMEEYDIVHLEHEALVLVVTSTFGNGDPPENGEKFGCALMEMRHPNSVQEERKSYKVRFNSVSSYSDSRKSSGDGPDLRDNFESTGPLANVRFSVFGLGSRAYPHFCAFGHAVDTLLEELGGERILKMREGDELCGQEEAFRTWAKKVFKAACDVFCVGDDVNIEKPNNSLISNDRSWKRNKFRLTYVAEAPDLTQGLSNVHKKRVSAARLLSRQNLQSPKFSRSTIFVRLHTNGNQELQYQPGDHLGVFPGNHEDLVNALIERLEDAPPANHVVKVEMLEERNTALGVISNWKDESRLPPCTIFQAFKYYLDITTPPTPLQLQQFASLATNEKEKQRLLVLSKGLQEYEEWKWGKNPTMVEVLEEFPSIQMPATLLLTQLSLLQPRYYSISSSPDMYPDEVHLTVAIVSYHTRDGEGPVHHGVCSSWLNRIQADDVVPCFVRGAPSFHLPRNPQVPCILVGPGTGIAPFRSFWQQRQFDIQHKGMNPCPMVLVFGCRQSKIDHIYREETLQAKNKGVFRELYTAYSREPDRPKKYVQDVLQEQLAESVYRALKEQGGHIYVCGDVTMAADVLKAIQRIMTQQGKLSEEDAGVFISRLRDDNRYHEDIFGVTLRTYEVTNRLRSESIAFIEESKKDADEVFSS
pIC50: −log10 of the molar value.
readout.kind: pIC50

> print(dat)
                                        mol  readout.kind  measurement
1  N[C@@H](Cc1c[nH]c2ccccc12)C(=O)NCCNc1c2c(nc3cc(Cl)ccc13)CCCC2         pIC50         4.41
2  Cl.Cl.N[C@@H](Cc1c[nH]c2ccccc12)C(=O)NCCCCCCNc1c2c(nc3ccccc13)CCCC2         pIC50         4.48
3  COc1ccc2nc3c(c(NCCCCCCCCNC(=O)[C@@H](N)Cc4c[nH]c5ccccc45)c2c1)CCCC3         pIC50         4.35
4  Cl.Cl.N[C@@H](Cc1c[nH]c2ccccc12)C(=O)NCCCCCCCCNc1c2c(nc3cc(Cl)ccc13)CCCC2         pIC50         4.37
5  Cl.Cl.N[C@@H](Cc1c[nH]c2ccccc12)C(=O)NCCCCCNc1c2c(nc3ccccc13)CCCC2         pIC50         4.59
6  COc1ccc2nc3c(c(NCCCCCCNC(=O)[C@@H](N)Cc4c[nH]c5ccccc45)c2c1)CCCC3         pIC50         4.57
7  Cl.Cl.N[C@@H](Cc1c[nH]c2ccccc12)C(=O)NCCCCCCCNc1c2c(nc3cc(Cl)ccc13)CCCC2         pIC50         4.57

====

biological target: UniProtKB P06276
pIC50: −log10 of the molar value.
readout.kind: pIC50

> print(dat)
                                        mol  measurement
1  N[C@@H](Cc1c[nH]c2ccccc12)C(=O)NCCCCCCCCNc1c2c(nc3ccccc13)CCCC2         7.19
2  COc1ccc2nc3c(c(NCCCCCCCCNC(=O)[C@@H](N)Cc4c[nH]c5ccccc45)c2c1)CCCC3         6.89
3  Cl.Cl.N[C@@H](Cc1c[nH]c2ccccc12)C(=O)NCCCCCCCNc1c2c(nc3cc(Cl)ccc13)CCCC2         7.28
4  N[C@@H](Cc1c[nH]c2ccccc12)C(=O)NCCCCNc1c2c(nc3cc(Cl)ccc13)CCCC2         6.92
5  Cl.Cl.N[C@@H](Cc1c[nH]c2ccccc12)C(=O)NCCCCCCNc1c2c(nc3cc(Cl)ccc13)CCCC2         8.04
6  COc1ccc2nc3c(c(NCCCCCNC(=O)[C@@H](N)Cc4c[nH]c5ccccc45)c2c1)CCCC3.Cl.Cl         6.72
7  Cl.Cl.N[C@@H](Cc1c[nH]c2ccccc12)C(=O)NCCCNc1c2c(nc3ccccc13)CCCC2         7.40
8  Cl.Cl.N[C@H](Cc1c[nH]c2ccccc12)C(=O)NCCCCCCNc1c2c(nc3cc(Cl)ccc13)CCCC2         6.85
9  N[C@@H](Cc1c[nH]c2ccccc12)C(=O)NCCCCCNc1c2c(nc3cc(Cl)ccc13)CCCC2         7.13

====

assay: Toxicity in ip dosed Wistar rat assessed as maximum tolerated dose measured during first 2 hrs then periodically for 48 hrs; format: organism-based; details: in vivo
readout.kind: MTD at 48 h (mg/kg)

> print(dat)
                                        mol  readout.kind  measurement
1  Cl.Cl.N[C@@H](Cc1c[nH]c2ccccc12)C(=O)NCCCCCCNc1c2c(nc3cc(Cl)ccc13)CCCC2   MTD at 48 h           70

====

Consider the following IC50 values measured on Cholinesterase (Homo sapiens, UniProt P06276).
Sequence (P06276 whole entry): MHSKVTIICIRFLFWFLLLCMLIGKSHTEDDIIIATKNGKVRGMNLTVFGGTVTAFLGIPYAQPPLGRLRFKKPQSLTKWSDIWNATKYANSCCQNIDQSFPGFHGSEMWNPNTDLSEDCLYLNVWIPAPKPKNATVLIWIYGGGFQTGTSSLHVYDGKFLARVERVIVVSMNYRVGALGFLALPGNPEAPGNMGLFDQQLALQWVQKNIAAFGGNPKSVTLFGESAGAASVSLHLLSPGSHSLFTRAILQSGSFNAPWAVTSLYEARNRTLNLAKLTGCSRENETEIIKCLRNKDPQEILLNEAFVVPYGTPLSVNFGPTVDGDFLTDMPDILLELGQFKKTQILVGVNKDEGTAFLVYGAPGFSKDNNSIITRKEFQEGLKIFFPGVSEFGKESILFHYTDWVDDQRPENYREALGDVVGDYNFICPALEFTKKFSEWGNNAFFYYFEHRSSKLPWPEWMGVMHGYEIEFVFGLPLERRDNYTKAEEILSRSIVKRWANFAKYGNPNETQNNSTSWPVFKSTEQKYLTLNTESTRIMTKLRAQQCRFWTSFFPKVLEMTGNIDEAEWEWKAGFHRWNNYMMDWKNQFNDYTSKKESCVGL
readout.kind: IC50 (nM)

> print(dat)
                                   molecule  endpoint.unit  measurement
1  Cl.Cl.N[C@@H](Cc1c[nH]c2ccccc12)C(=O)NCCCCCCNc1c2c(nc3ccccc13)CCCC2             nM          3.9
2  Cl.Cl.NC(Cc1c[nH]c2ccccc12)C(=O)NCCCCCCNc1c2c(nc3cc(Cl)ccc13)CCCC2 (racemic)             nM           13
3  COc1ccc2nc3c(c(NCCCCCCNC(=O)[C@@H](N)Cc4c[nH]c5ccccc45)c2c1)CCCC3             nM           55
4  Cl.Cl.N[C@@H](Cc1c[nH]c2ccccc12)C(=O)NCCCCCCCCNc1c2c(nc3cc(Cl)ccc13)CCCC2             nM          140

====

# Lookup of reported IC50 keyed by entry
molecular target: Cholinesterase (Homo sapiens, UniProt P06276)
readout.kind: IC50 (nM)

> print(dat)
                                        mol                             tested.target  measurement
1  N[C@@H](Cc1c[nH]c2ccccc12)C(=O)NCCCNc1c2c(nc3cc(Cl)ccc13)CCCC2  Cholinesterase (Homo sapiens, UniProt P06276)          140
2  Cl.Cl.N[C@@H](Cc1c[nH]c2ccccc12)C(=O)NCCCCNc1c2c(nc3ccccc13)CCCC2  Cholinesterase (Homo sapiens, UniProt P06276)          123
3  COc1ccc2nc3c(c(NCCCCCCCNC(=O)[C@@H](N)Cc4c[nH]c5ccccc45)c2c1)CCCC3  Cholinesterase (Homo sapiens, UniProt P06276)           78
4  COc1ccc2nc3c(c(NCCCNC(=O)[C@@H](N)Cc4c[nH]c5ccccc45)c2c1)CCCC3.Cl.Cl  Cholinesterase (Homo sapiens, UniProt P06276)         1800
5  O=C(CCCCCCNc1c2c(nc3cccc(Cl)c13)CCCC2)NCCc1c[nH]c2ccccc12  Cholinesterase (Homo sapiens, UniProt P06276)          7.8
6  COc1ccc2nc3c(c(NCCCCNC(=O)[C@@H](N)Cc4c[nH]c5ccccc45)c2c1)CCCC3.Cl.Cl  Cholinesterase (Homo sapiens, UniProt P06276)          520
7  Cl.Cl.N[C@@H](Cc1c[nH]c2ccccc12)C(=O)NCCCCCNc1c2c(nc3ccccc13)CCCC2  Cholinesterase (Homo sapiens, UniProt P06276)           23
8  Cl.Cl.N[C@@H](Cc1c[nH]c2ccccc12)C(=O)NCCNc1c2c(nc3ccccc13)CCCC2  Cholinesterase (Homo sapiens, UniProt P06276)           56

====

molecular target: Acetylcholinesterase (Electrophorus electricus); experiment: Displacement of propidium iodide from peripheral binding site of electric eel AChE assessed as dissociation constant at 8 to 56 uM by spectrofluorometry based Taylor and Lappi method
Sequence (O42275 whole entry): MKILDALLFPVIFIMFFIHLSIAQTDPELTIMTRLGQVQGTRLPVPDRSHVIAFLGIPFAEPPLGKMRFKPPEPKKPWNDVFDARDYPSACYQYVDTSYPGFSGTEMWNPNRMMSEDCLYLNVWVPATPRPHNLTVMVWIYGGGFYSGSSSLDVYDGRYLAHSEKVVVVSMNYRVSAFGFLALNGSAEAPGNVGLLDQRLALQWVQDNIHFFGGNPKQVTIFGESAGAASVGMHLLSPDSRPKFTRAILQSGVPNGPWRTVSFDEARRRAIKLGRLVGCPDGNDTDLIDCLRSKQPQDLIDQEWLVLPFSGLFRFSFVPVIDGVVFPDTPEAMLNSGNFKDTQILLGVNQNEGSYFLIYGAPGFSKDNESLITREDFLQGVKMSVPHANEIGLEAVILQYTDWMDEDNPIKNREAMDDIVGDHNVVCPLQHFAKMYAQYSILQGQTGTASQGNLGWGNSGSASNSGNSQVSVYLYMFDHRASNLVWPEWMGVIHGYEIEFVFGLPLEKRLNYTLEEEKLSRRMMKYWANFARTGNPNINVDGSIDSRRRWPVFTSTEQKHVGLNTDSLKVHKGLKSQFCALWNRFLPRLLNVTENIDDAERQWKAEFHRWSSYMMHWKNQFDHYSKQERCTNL
pKd: −log10 of the molar value.
readout.kind: pKd

> print(dat)
                                        mol  readout.kind  measurement
1  Cl.Cl.N[C@@H](Cc1c[nH]c2ccccc12)C(=O)NCCCCCCNc1c2c(nc3cc(Cl)ccc13)CCCC2           pKd         5.32

====

pIC50: −log10 of the molar value.
Consider the following pIC50 values measured on Acetylcholinesterase (Homo sapiens, UniProt P22303).
Sequence (P22303 whole entry): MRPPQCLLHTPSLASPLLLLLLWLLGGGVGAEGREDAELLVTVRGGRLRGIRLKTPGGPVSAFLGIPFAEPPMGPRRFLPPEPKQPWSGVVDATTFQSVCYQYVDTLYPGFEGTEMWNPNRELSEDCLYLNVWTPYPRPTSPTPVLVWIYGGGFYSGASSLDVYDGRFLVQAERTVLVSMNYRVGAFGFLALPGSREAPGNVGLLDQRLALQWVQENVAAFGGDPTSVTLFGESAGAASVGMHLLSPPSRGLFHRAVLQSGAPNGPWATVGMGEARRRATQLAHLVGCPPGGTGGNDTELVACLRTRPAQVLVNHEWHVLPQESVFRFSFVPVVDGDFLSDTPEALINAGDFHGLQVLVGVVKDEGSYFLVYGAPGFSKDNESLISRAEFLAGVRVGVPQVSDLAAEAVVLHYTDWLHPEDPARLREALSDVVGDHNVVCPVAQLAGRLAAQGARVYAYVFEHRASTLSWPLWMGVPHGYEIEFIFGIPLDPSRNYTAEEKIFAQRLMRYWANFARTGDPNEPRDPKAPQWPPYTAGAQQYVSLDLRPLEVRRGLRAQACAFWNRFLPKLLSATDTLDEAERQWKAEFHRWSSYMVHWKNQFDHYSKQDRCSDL
readout.kind: pIC50

> print(dat)
                                   molecule                             tested.target  measurement
1  COc1ccc2nc3c(c(NCCCCCCCNC(=O)[C@@H](N)Cc4c[nH]c5ccccc45)c2c1)CCCC3  Acetylcholinesterase (Homo sapiens, UniProt P22303)         6.01
2  O=C(CCCCCCNc1c2c(nc3cccc(Cl)c13)CCCC2)NCCc1c[nH]c2ccccc12  Acetylcholinesterase (Homo sapiens, UniProt P22303)        11.10
3  Cl.Cl.NC(Cc1c[nH]c2ccccc12)C(=O)NCCCCCCNc1c2c(nc3cc(Cl)ccc13)CCCC2 (racemic)  Acetylcholinesterase (Homo sapiens, UniProt P22303)         8.13
4  Cl.Cl.N[C@H](Cc1c[nH]c2ccccc12)C(=O)NCCCCCCNc1c2c(nc3cc(Cl)ccc13)CCCC2  Acetylcholinesterase (Homo sapiens, UniProt P22303)         8.16
5  N[C@@H](Cc1c[nH]c2ccccc12)C(=O)NCCCNc1c2c(nc3cc(Cl)ccc13)CCCC2  Acetylcholinesterase (Homo sapiens, UniProt P22303)         7.15
6  Cl.Cl.N[C@@H](Cc1c[nH]c2ccccc12)C(=O)NCCCCCCCCNc1c2c(nc3cc(Cl)ccc13)CCCC2  Acetylcholinesterase (Homo sapiens, UniProt P22303)         7.30
7  COc1ccc2nc3c(c(NCCCCCCNC(=O)[C@@H](N)Cc4c[nH]c5ccccc45)c2c1)CCCC3  Acetylcholinesterase (Homo sapiens, UniProt P22303)         6.03
8  N[C@@H](Cc1c[nH]c2ccccc12)C(=O)NCCCCNc1c2c(nc3cc(Cl)ccc13)CCCC2  Acetylcholinesterase (Homo sapiens, UniProt P22303)         7.21
